Assay: Antianaphylactic activity in rat mast cells assessed as inhibition of DNP-ovalbumin-induced histamine release after 15 mins by superfusion assay relative to 4-oxo-N-(5-tetrazolyl)-4H-l-benzopyran-2-carboxamide
Format: functional, Mast cell
QUANTITY KIND: fold change (potency relative to reference compound)

Worked cases, answers included:
>>> endpoint_result("COc1ccc2c(=O)c(-c3ccccc3)c(C(=O)Nc3nnn[nH]3)oc2c1")
"<0.005"
>>> endpoint_result("NC(=O)c1cc(=O)c2ccc(O)c(N)c2o1")
"<0.005"

Next up:
Prompt line: Could you tell me which fold change (potency relative to reference compound) is on file for O=C(O)CCNC(=O)c1cc(=O)c2ccccc2o1 ?
Response line: <0.005
